tested on: K562; experiment: NCI tumour cell line growth inhibition, 48 h
Active and inactive are the calls of the source. No stated cut-off is given here; in the data, active = GI50 up to about 1.1 µM and inactive = higher.
Just give me one of these, please: Yes for active, No for inactive

How did this test come out for "CC(=O)Oc1ccc2[nH]c3c(C)c4cccc-4ccc3c2c1" ?
No

How did this test come out for "Nc1nc(NNc2ccccc2F)cc(=O)[nH]1" ?
No

How did this test come out for Cc1cccc(C(C)(C)C)c1NC(=O)CC1Sc2ccccc2NC1=O (configuration not stated) ?
No

How did this test come out for "O=C(C=P(c1ccccc1)(c1ccccc1)c1ccccc1)C12CC3CC(CC(C3)C1)C2" ?
Yes

How did this test come out for CN1N=C(c2ccncc2)OC1c1ccc(Cl)c(Cl)c1 (configuration not stated) ?
No

How did this test come out for "CCSCN(C)c1nc(N(C)C)nc(N(C)C)n1" ?
No

How did this test come out for Cc1ccc2c(c1)nc1n2C(c2c(F)cccc2F)SC1 (configuration not stated) ?
No

How did this test come out for COc1cccc2c1[C@H]1CO[C@H]3C4C[C@H](C(=O)O)C([C@@H](C2)N13)N4C (some centres not stated) ?
No

How did this test come out for "COc1ccc(/C(Cl)=C/c2ccc(Cl)c(Cl)c2)cc1" ?
No

How did this test come out for OCC1c2ccccc2-n2nc(-c3ccccc3)c(O)c21 (configuration not stated) ?
No

How did this test come out for Oc1cc(O)c2c(c1)OC(c1ccc(O)c(O)c1)C(OC1(c3cc(O)c(O)c(O)c3)Oc3cc(O)cc(O)c3C(O)C1O)C2 (configuration not stated) ?
No

How did this test come out for "C[C@@H](c1ccccc1)N1C[C@@H](c2ccc3c(c2)OCO3)[C@@H]2C(=O)CCC[C@@H]21" ?
No

* * *

test system: NCI/ADR-RES; assay: NCI tumour cell line growth inhibition, 48 h
Calls of active or inactive are those of the source. No stated cut-off is given here; in the data, active = GI50 up to about 1.1 µM and inactive = higher.
Just give me one of these, please: Y for active, N for inactive

How did this test come out for CCN(CC)CCCC(C)Nc1ccnc2cc(Cl)ccc12 (stereo not drawn) [CHLOROQUINE PHOSPHATE] ?
N

How did this test come out for "O=C1/C(=C/c2c(Cl)[nH]c3ccccc23)c2ccccc2N1c1ccccc1" ?
N

How did this test come out for "CCOC(=O)CN1CCS/C1=N/C#N" ?
N

How did this test come out for CCCC(=O)Nc1cc(/C=C/C(=O)N2CC(CCl)c3c2cc(O)c2[nH]cc(C)c32)n(C)c1 (stereo not drawn) ?
Y

How did this test come out for Cc1ccc(S(=O)(=O)NC(CCC(=O)NN)C(=O)NN)cc1 (stereo not drawn) ?
N

How did this test come out for CC(=O)O[C@@H]1CC2[C@@H](CCC3Cc4nc5c(nc4C[C@@]32C)CC2CC[C@@H]3C(CC[C@@]4(C)C3CC[C@@H]4C(C)CCCC(C)C)[C@@]2(C)C5)C2C[C@@H]3OC4(CCC(C)CO4)C(C)[C@@H]3[C@]21C (stereo partly drawn) ?
N

How did this test come out for "COc1ccc(/N=C/C=C/Nc2ccc(OC)cc2)cc1" ?
N

How did this test come out for "Oc1c(Br)cc(/C=C/c2cccc(/C=C/c3cc(Br)c(O)c(Br)c3)n2)cc1Br" ?
N

How did this test come out for "c1cc(C[S+]2CCCC2)oc1C[S+]1CCCC1" ?
N

How did this test come out for "C(/C=N/N=C1NCCCCN1)=N\N=C1NCCCCN1" ?
N

How did this test come out for "CCN(CC)CCCNc1c2cc(OC)ccc2nc2cccc([N+](=O)[O-])c12" ?
Y

How did this test come out for "CCOP(=O)(OCC)C(=C1C=C(C(C)(C)C)C(=O)C(C(C)(C)C)=C1)P(=O)(OCC)OCC" ?
N

How did this test come out for "CC(C)CCn1c(=O)c2c(=O)[nH][nH]c2c2ccccc21" ?
N

* * *

Answer each item with its documented GI50.
system: OVCAR-8; assay: NCI tumour cell line growth inhibition, 48 h
Calls of active or inactive are those of the source. Rule as the data show it: active = GI50 up to about 1.1 µM and inactive = higher.

Entry "O=C(CSCC(=O)N/N=C\c1ccc(O)c(O)c1O)N/N=C\c1ccc(O)c(O)c1O" has what GI50?
2.31 µM (inactive)

Entry "CCOC(=O)CN1CCS/C1=N/C#N" has what GI50?
> 100 µM (inactive)

Entry "C[Si](C)(C)C1(Sc2ccccc2)SCCCS1" has what GI50?
33.8 µM (inactive)

Entry "NC(=O)NC12CC3CC(CC(F)(C3)C1)C2" has what GI50?
> 100 µM (inactive)

Entry CC1(SCC(N)C(=O)O)CC(=O)NC1=O (stereo unspecified) has what GI50?
> 100 µM (inactive)

Entry CC(C)N(C(=O)C12C3C4C5(C#N)C3C1(I)C5C42I)C(C)C (stereo unspecified) has what GI50?
> 100 µM (inactive)

* * *

test system: UACC-257; experiment: NCI tumour cell line growth inhibition, 48 h
Active and inactive are the calls of the source. Rule as the data show it: active = GI50 up to about 1.1 µM and inactive = higher.
Just give me one of these, please: y for active, n for inactive

How did this test come out for CC1CCC(C(=O)O)(C(Br)C(=O)O)CC1 (centres undefined) ?
n

How did this test come out for CN(C)CCOC1(Cc2ccc(Cl)cc2Cl)CCC(C(C)(C)C)CC1 (centres undefined) ?
y

How did this test come out for O=C(O)CCC(N/C=C1/N=C(c2ccccc2)OC1=O)C(=O)O (centres undefined) ?
n

How did this test come out for Cc1cc(C)c(P2C(=C(O[Si](C(C)C)(C(C)C)C(C)C)C(C)(C)C)C2(c2ccccc2)c2ccccc2)c(C)c1 (centres undefined) ?
n

How did this test come out for "CC(=O)[C@@]1(O)CC[C@H]2[C@@H]3C[C@H](C)C4=CC(=O)C=C[C@]4(C)[C@@]3(F)[C@@H](O)C[C@@]21C" ?
n

How did this test come out for "COc1ccc2ccc([Se]c3ccc4ccc(OC)cc4c3)cc2c1" ?
n

How did this test come out for COC(=O)C1(C)CCc2c(OC)ccc(OC)c2C1=O (centres undefined) ?
n

How did this test come out for CCOC(=O)C(NS(=O)(=O)c1ccccc1)(C(F)(F)F)P(=O)(OCC(C)C)OCC(C)C (centres undefined) ?
n

How did this test come out for "COc1ccc(CNc2nc(NCc3ccc(OC)cc3)nc(NC3CCCCC3)n2)cc1" ?
n

How did this test come out for "CCOP(=O)(OCC)C(=C1C=C(C(C)(C)C)C(=O)C(C(C)(C)C)=C1)P(=O)(OCC)OCC" ?
n

How did this test come out for "Nc1nc(Cl)c(Cl)c(NCC2(O)CCC2)n1" ?
n

How did this test come out for O=C1OC(C2Cc3ccc4c(c3C2=O)CCC4)c2ccccc21 (centres undefined) ?
n

How did this test come out for "Cc1ccccc1/C=N/C12CC3CC(CC(C3)C1)C2" ?
n

How did this test come out for "CCCCn1c2ccccc2c2ccc3c(c21)C(=O)C=CC3=O" ?
n

How did this test come out for "CO[C@H]1[C@@H](O)[C@@H](O)O[C@@H](O[C@H]2CC[C@@]3(C)[C@H](CC[C@@H]4[C@@H]3[C@H](O)C[C@]3(C)[C@@H](C5=CC(=O)OC5)CC[C@]43O)C2)[C@@H]1O" ?
y

How did this test come out for "O=C(C=P(c1ccccc1)(c1ccccc1)c1ccccc1)C12CC3CC(CC(C3)C1)C2" ?
n

How did this test come out for "O=C1c2ccccc2-c2c1c1ccccc1c(=O)n2Cc1ccco1" ?
n

How did this test come out for CC(C)(C)[Si](C)(C)OCC1OC(n2ccc(=O)[nH]c2=O)C(O[Si](C)(C)C(C)(C)C)[C@]12O[C@@H]2CO (some centres undefined) ?
n

How did this test come out for Cc1ccc2c(c1)C1(C)OC(CC(N)C1O)O2 (centres undefined) ?
n

How did this test come out for "[O-][n+]1onc2c3nn(-c4ccccc4)nc3ccc21" ?
n

How did this test come out for C=CCC1CC(n2cc(C)c(=O)[nH]c2=O)OC1CO[Si](C)(C)C(C)(C)C (centres undefined) ?
n

How did this test come out for "S=C=Nc1ccc(CSc2nc3ccccc3[nH]2)cc1" ?
n

How did this test come out for "Cc1cc2ncc3c(=O)n(NS(=O)(=O)c4ccc(N)cc4)ccc3n2n1" ?
n

How did this test come out for "N#Cc1c(NN)nc(NN)c(C#N)c1-c1ccccc1" ?
n

How did this test come out for "O=[N+]([O-])c1cc2c(cc1O)[nH]c1cccc([N+](=O)[O-])c12" ?
n

How did this test come out for "O=C1c2ccccc2C(=O)N1CCc1ncc[nH]1" ?
n

How did this test come out for "COc1ccc(Br)c(CCCCC(=O)O)c1" ?
n

How did this test come out for "Oc1c(Br)cc(/C=C/c2cccc(/C=C/c3cc(Br)c(O)c(Br)c3)n2)cc1Br" ?
n

How did this test come out for CCOC(=O)C12C(C(=O)OC)=C(C)N(NC(=O)Nc3ccccc3)C1(N)N(NC(=O)Nc1ccccc1)C(C)=C2C(=O)OC (centres undefined) ?
n

How did this test come out for "O=C(NCC(O)CNC(=O)C(F)(F)F)C(F)(F)F" ?
n

How did this test come out for "Nc1cccc2cc(Cl)cnc12" ?
n

How did this test come out for "C=CCN1C[C@H](C)N([C@H](c2ccc(C(=O)N(CC)CCO)cc2)c2cccc(OC)c2)C[C@H]1C" ?
n

How did this test come out for "Cc1cc(NCCCCCCCCCC[n+]2c(C)cc(N)c3ccccc32)c2ccccc2n1" ?
y

How did this test come out for "CC(=O)Nc1nnc(S(=O)(=O)NC(=S)Nc2ccc(Cl)cc2)s1" ?
n

How did this test come out for NC(=O)C1C(=O)Oc2cccnc21 (centres undefined) ?
n

How did this test come out for CC(C)N(C(=O)C12C3C4C5(C#N)C3C1(I)C5C42I)C(C)C (centres undefined) ?
n

How did this test come out for "Clc1ccc(CCNC2(c3cc4ccccc4s3)CCCCC2)cc1Cl" ?
n

How did this test come out for "Cc1c(NC(=O)CCl)c(=O)oc2c(C)c3occc(=O)c3cc12" ?
n

How did this test come out for "CCOC(=O)c1cc2c(OC(C)=O)ccc(OC(C)=O)c2s1" ?
n

Cited source: ChEMBL document CHEMBL1201862
